molecular target: Cytochrome P450 2C19 (Homo sapiens); assay: Cytochrome panel assay with activity outcomes; conditions: recombinant CYP, pro-luciferin dealkylation, luminescence, p450-cyp2c19; series mostly up to 57.1 µM; note: % is set by controls: 0 for no effect and ±100 for the full control effect
Hit rate of the full screen: of about 16,000 compounds, about 5,800 (36%) were called active. Roughly 23% stayed inconclusive and do not appear here. The list shows a part of the results. Square brackets hold non-standard residues; d marks the D form. Peptide text beside a SMILES is read from it.
TEST_READOUT: activity, negative = inhibition

Lab note: measured activity, negative = inhibition of O=C1c2ccccc2C(=O)N1C[C@]1(C(=O)O)NCCS1(=O)=O was -9.77% [at 11.4 µM] (inactive)

Lab note: measured activity, negative = inhibition of O=C(O)CSc1cc(-c2ccccc2)nc2ccccc12 was 1.28% [at 11.4 µM] (inactive)

Lab note: measured activity, negative = inhibition of C#CCCCO/N=C1/[C@H]2O[C@@H]2[C@@H](O)[C@H]2[C@H]1CCn1c(=O)n(C)c(=O)n12 was -3.85% [at 11.4 µM] (inactive)

Lab note: measured activity, negative = inhibition of Nc1n[nH]c2ccccc12 was -23.5% [at 11.4 µM] (inactive)

Lab note: measured activity, negative = inhibition of Cc1ccc(S(=O)(=O)NC(=O)OC23COCN2COC3)cc1 was 12.8% [at 11.4 µM] (inactive)

Lab note: measured activity, negative = inhibition of O=C(Nc1ccc2ncccc2c1)Nc1ccc2ncccc2c1 was 14.5% [at 11.4 µM] (inactive)

Further cases:
Lab note: measured activity, negative = inhibition of O=C(O)/C(=C\c1ccc(O)cc1)c1cccc2ccccc12 was -11.8% [at 11.4 µM] (inactive)

Lab note: measured activity, negative = inhibition of N[C@H](CO)C(=O)NCC(=O)O (H-[dS]-Gly-OH) was 19% [at 11.4 µM] (inactive)

Lab note: measured activity, negative = inhibition of CCOC(=O)N/N=C1/C[C@@H](O)[C@@H](O)[C@@H]2[C@@H]3C(=O)N([C@@H](C)c4ccccc4)C(=O)[C@H]3CC[C@@H]12 was -0.98% [at 11.4 µM] (inactive)

Lab note: measured activity, negative = inhibition of CS(=O)(=O)Nc1ccc(Nc2c3ccccc3nc3ccccc23)cc1 was -0.835% [at 11.4 µM] (inactive)
